B1: POMT2 (parent)
chain: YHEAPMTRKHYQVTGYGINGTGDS

Variants of: B1
Test Protocol: protein stability index of a GFP-peptide fusion (GPS, HEK-293T) (PSI 1-6); higher = more stable;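 note: lentivirally expressed fusions sorted by FACS into six bins by GFP to DsRed ratio, PSI derived from sequencing read proportions per bin multiplied by bin number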
Details: c terminus: a fixed tail appended
Metric: protein stability index
# print the numeric value only

Recorded protein stability index, per entry:
T21E	2.04
Y11I	2.77
I18F	2.47
Y1S	3.68
T7S	2.3

Query block: Quick one: protein stability index of Y1Q ?
Result block: 3.9

Query block: Need protein stability index, item Y16A
Result block: 2.48

Query block: Bench note: what protein stability index did K9Y show?
Result block: 1.76

Query block: Form field: reported protein stability index of K9F
Result block: 2.13

Query block: What value of protein stability index has been reported for the following variant? E3Y
Result block: 1.77

Query block: So what does the record say about protein stability index for G17C ?
Result block: 2.41

Query block: Please give the measured protein stability index for this variant: H2S
Result block: 3.39

Query block: What value of measured protein stability index is listed for T14F ?
Result block: 2.57

Query block: Please report the recorded protein stability index for G17T .
Result block: 2.24
